From: PubChem BioAssay AID1159580

# test-method-notes: chemical genetic growth profiling, strain panel (AID 1159580);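 note: tested at 20 µM; growth read once vehicle control cultures reached saturation at 30 °C; 1 = growth at the plate median or of vehicle wells; lower values mean less growth of the strain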
# condition-details: S. cerevisiae deletion strains, growth OD, locus YDL185W, strain tfp1
The whole screen tested about 5,500 compounds, of which about 2,000 (36%) were called active. About 18% were inconclusive and are not listed. Cut-off read from the data, not from the text of the source: active = normalized growth mostly below about 0.91 (no sharp cut-off); inconclusive = no clear call, values can overlap the other calls; inactive = mostly above about 0.92. The list shows a part of the results.
Outcomes: active, inactive

{"compound": "Cc1ccc2c(c1)C1(C)CCCC(C)(C(=O)O)C1CC2 (centres undefined)", "answer-label": "inactive"}
{"compound": "CC(=O)Oc1ccc(C(c2ccc(OC(C)=O)cc2)c2ccccn2)cc1", "answer-label": "inactive"}
{"compound": "O=C(O)c1cc(O)c2c(c1)[C@@H]([C@H]1c3cc(C(=O)O)cc(O)c3C(=O)c3c(O[C@H]4O[C@H](CO)[C@@H](O)[C@H](O)[C@H]4O)cccc31)c1cccc(O[C@H]3O[C@H](CO)[C@@H](O)[C@H](O)[C@H]3O)c1C2=O", "answer-label": "inactive"}
{"compound": "COC(=O)/C(=C1\\OC(=O)C(c2ccccc2)=C1O)c1ccccc1", "answer-label": "inactive"}
{"compound": "CC(C)c1ccc2c(c1)CCC1[C@](C)(CN)CCC[C@]21C (some centres undefined)", "answer-label": "active"}
{"compound": "CC(C)c1ccc2c(c1)CCC1C(C)(C(N)=O)CCCC21C (centres undefined)", "answer-label": "inactive"}
{"compound": "CCC(C)C(=O)OC1[C@@H]2CC3=C4CC(=O)O[C@@H](c5ccoc5)[C@]4(C)CCC3[C@@](C)(C2=O)[C@@H](CC(=O)OC)C1(C)C (some centres undefined)", "answer-label": "inactive"}
{"compound": "Nc1ccc(C(=O)O)cc1", "answer-label": "inactive"}
{"compound": "CC(=O)Oc1cccc(O)c1", "answer-label": "inactive"}

* * *

# test-method-notes: chemical genetic growth profiling, strain panel (AID 1159580);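 note: tested at 20 µM; growth read once vehicle control cultures reached saturation at 30 °C; 1 = growth at the plate median or of vehicle wells; lower values mean less growth of the strain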
# condition-details: S. cerevisiae deletion strains, growth OD, locus YEL061C, strain CIN8, hits give low values
Among all 5,500 compounds or so, about 2,000 (36%) were called active. Inconclusive results (about 18%) are left out. The list shows a part of the results.
The following compounds are shown together with reported normalized growth values.
measurement-type: normalized growth

{"compound": "NCC(N)C(=O)c1ccccc1 (stereo unspecified)", "assay-result": 1.01}
{"compound": "CC(=O)Oc1c(Cl)c(C)c2c(c1Cl)OC(=O)c1c(C)c(Cl)c(OC(C)=O)c(Cl)c1O2", "assay-result": 1.02}
{"compound": "OC[C@H]1O[C@@H](O[C@H]2[C@H](O)[C@@H](O)[C@@H](O)O[C@@H]2CO)[C@H](O)[C@@H](O)[C@@H]1O", "assay-result": 1.01}
{"compound": "CC(C)CC(NC(=O)OCC1c2ccccc2-c2ccccc21)C(=O)O (stereo unspecified)", "assay-result": 0.997}
{"compound": "C=C1c2c(Cl)ccc(O)c2C(O)=C2C(=O)[C@]3(O)C(O)=C(C(N)=O)C(=O)[C@@H](N(C)C)[C@@H]3[C@@H](O)[C@H]12", "assay-result": 0.976}
{"compound": "COC(=O)C/C(N)=C(\\C#N)C(=O)OC", "assay-result": 0.994}
{"compound": "CCCc1cc(=O)oc2c1c(C)nn2-c1ccccc1", "assay-result": 0.885}
{"compound": "O=C(OCc1ccccc1)c1ccccc1", "assay-result": 0.988}
{"compound": "COC(=O)c1c(OC)cc2c(c1C)Oc1c(Cl)c(OC(C)=O)c(Cl)c(C)c1C(=O)O2", "assay-result": 0.999}
{"compound": "OC[C@H]1O[C@@](CO)(O[C@@H]2O[C@H](CO)[C@@H](O)[C@H](O)[C@H]2O)[C@@H](O[C@@H]2O[C@H](CO)[C@@H](O)[C@H](O)[C@H]2O)[C@@H]1O", "assay-result": 1.01}
{"compound": "COC(=O)c1c(OC)cc2c(c1C)Oc1c(Cl)c(O)c(Cl)c(C)c1C(=O)O2", "assay-result": 0.931}
{"compound": "CC(=O)Oc1ccc(C(c2ccc(OC(C)=O)cc2)c2ccccn2)cc1", "assay-result": 0.99}
{"compound": "COc1ccc2cc(CCC(C)=O)ccc2c1", "assay-result": 0.946}
{"compound": "COc1c(C)c2c(c(C)c1Cl)Oc1c(Cl)c(OC)c(Cl)c(C)c1C(=O)O2", "assay-result": 1.01}
{"compound": "N[C@@H](CCC(=O)N[C@@H](CS)C(=O)NCC(=O)O)C(=O)O", "assay-result": 0.991}
{"compound": "Cc1ccc(-c2nn[nH]n2)cc1Cl", "assay-result": 0.983}
{"compound": "C[C@H]1c2cccc(O)c2C(O)=C2C(=O)[C@]3(O)C(O)=C(C(N)=O)C(=O)[C@@H](N(C)C)[C@@H]3[C@@H](O)[C@@H]21", "assay-result": 0.984}
{"compound": "O=C1NC(O)=NC1(c1ccccc1)c1ccccc1", "assay-result": 1.01}
{"compound": "CCN1CCN(C(=O)NC(C(=O)N[C@@H]2C(=O)N3[C@@H]2SC(C)(C)[C@@H]3C(=O)O)c2ccccc2)C(=O)C1=O (stereo partly specified)", "assay-result": 1.01}
{"compound": "CNNC", "assay-result": 1.01}
{"compound": "NC1=NCCN1CC(=O)O", "assay-result": 0.981}
{"compound": "CN(C)c1ccc(O)c2c1C[C@H]1C[C@H]3[C@H](N(C)C)C(=O)C(C(N)=O)=C(O)[C@@]3(O)C(=O)C1=C2O", "assay-result": 0.984}
{"compound": "CC(C)=CCc1c2c(c3occ(-c4ccc(O)cc4)c(=O)c3c1O)C=CC(C)(C)O2", "assay-result": 0.869}
{"compound": "CC12CCC(=O)C=C1CCC1C2[C@@H](O)CC2(C)C1CC[C@]2(O)C(=O)COP(=O)(O)O (stereo partly specified)", "assay-result": 1.02}
{"compound": "CCN(CC)CCOC(=O)C1(C2CCCCC2)CCCCC1", "assay-result": 1}
{"compound": "Cc1cc(=O)oc2cc(O)c(O)cc12", "assay-result": 0.999}
{"compound": "CC(C)CCCC(C)C1CCC2C3CC[C@H]4C[C@@H](O)CC[C@]4(C)C3CC[C@]12C (stereo partly specified)", "assay-result": 0.995}
{"compound": "CCCc1c(OCCCCc2nn[nH]n2)ccc(C(C)=O)c1O", "assay-result": 1.01}
{"compound": "CC(C)CCCC(C)[C@H]1CCC2C3CC[C@@H]4C[C@H](O)CC[C@]4(C)C3CC[C@@]21C (stereo partly specified)", "assay-result": 1}
{"compound": "CN(C)[C@@H]1C(=O)C(C(N)=O)=C(O)[C@@]2(O)C(=O)C3=C(O)c4c(O)ccc(Cl)c4[C@@H](O)[C@H]3C[C@@H]12", "assay-result": 1}
{"compound": "NC(Cn1ccc(=O)c(O)c1)C(=O)O (stereo unspecified)", "assay-result": 1.01}
{"compound": "CS(=O)(=O)Nc1ccc([N+](=O)[O-])cc1Oc1ccccc1", "assay-result": 0.979}
{"compound": "CCCCCCc1cc2c(C)cc(=O)oc2cc1O", "assay-result": 0.966}
{"compound": "C=C(C)C1(O)OC(=O)C=C1OC (stereo unspecified)", "assay-result": 0.989}
{"compound": "CC(=O)Oc1ccc(/C=C/c2cc(OC(C)=O)cc(OC(C)=O)c2)cc1", "assay-result": 0.999}
{"compound": "COC(=O)c1c(C)c2c(c(C)c1OC)OC(=O)c1c(C)c(Cl)c(OC)c(Cl)c1O2", "assay-result": 1.01}
{"compound": "Cc1onc(-c2c(Cl)cccc2Cl)c1NC(=O)O/N=C\\c1ccc(N(C)C)cc1", "assay-result": 0.338}
{"compound": "COC(=O)c1c(C)c2c(c(C)c1O)OC(=O)c1c(C)c(Cl)c(O)c(Cl)c1O2", "assay-result": 0.986}
{"compound": "Cc1ccc2c(c1)C1(C)CCCC(C)(C(=O)O)C1CC2 (stereo unspecified)", "assay-result": 0.993}
{"compound": "CCCc1cc(=O)oc2cc(OCC(=O)OCC)ccc12", "assay-result": 0.963}
{"compound": "C=C1C[C@]23C[C@@]1(O)CC[C@H]2[C@@]12C=C[C@H](O)[C@@](C)(C(=O)O1)[C@H]2[C@@H]3C(=O)O", "assay-result": 1}

* * *

# test-method-notes: chemical genetic growth profiling, strain panel (AID 1159580);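 note: tested at 20 µM; growth read once vehicle control cultures reached saturation at 30 °C; 1 = growth at the plate median or of vehicle wells; lower values mean less growth of the strain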
# condition-details: S. cerevisiae deletion strains, growth OD, locus YOR069W, strain VPS5
Among all 5,500 compounds or so, about 2,000 (36%) were called active. Another 18% or so got no clear call; they are omitted. Rule as the data show it: active = normalized growth mostly below about 0.91 (no sharp cut-off); inconclusive = no clear call, values can overlap the other calls; inactive = mostly above about 0.92. The list shows a part of the results.
Outcomes: YES (active), NO (inactive)

{"compound": "N=C(N)N", "answer-label": "NO"}
{"compound": "CCC(C)[C@H]1O[C@]2(C=C[C@@H]1C)C[C@@H]1C[C@@H](C/C=C(\\C)[C@@H](OC3C[C@H](OC)C(O[C@H]4C[C@H](OC)[C@@H](O)[C@H](C)O4)[C@H](C)O3)[C@@H](C)/C=C/C=C3\\CO[C@@H]4[C@H](O)C(C)=C[C@@H](C(=O)O1)[C@]34O)O2 (stereo not given in full)", "answer-label": "YES"}
{"compound": "COC(=O)/C(=C1\\OC(=O)C(c2ccccc2)=C1O)c1ccccc1", "answer-label": "NO"}
{"compound": "CCN(CC)CCOC(=O)C(c1ccccc1)C1CCCCC1 (stereo not given)", "answer-label": "NO"}
{"compound": "COc1cc(C(C)=O)cc(OC)c1O", "answer-label": "NO"}
{"compound": "CC(C)CC1NC(=O)CNC1=O (stereo not given)", "answer-label": "NO"}
{"compound": "O=P1(N(CCCl)CCCl)NCCCO1 (stereo not given)", "answer-label": "NO"}
{"compound": "CC12CCC3C(CC3(C)C)C(C)(CCC1=O)O2 (stereo not given)", "answer-label": "NO"}
{"compound": "CCC(C)C(=O)OC1[C@@H]2CC3=C4CC(=O)O[C@@H](c5ccoc5)[C@]4(C)CCC3[C@@](C)(C2=O)[C@@H](CC(=O)OC)C1(C)C (stereo not given in full)", "answer-label": "NO"}
{"compound": "CC(C)=CC1C(C(=O)O)C1(C)C (stereo not given)", "answer-label": "NO"}
{"compound": "C[C@H](CCC(=O)O)[C@H]1CCC2C3C(=O)CC4CC(=O)CC[C@]4(C)C3CC(=O)[C@@]21C (stereo not given in full)", "answer-label": "NO"}
{"compound": "CC(N=C(NC#N)Nc1ccncc1)C(C)(C)C (stereo not given)", "answer-label": "NO"}
{"compound": "NCC(N)C(=O)c1ccccc1 (stereo not given)", "answer-label": "NO"}
{"compound": "O=C(O)c1cc(O)c2c(c1)[C@@H]([C@H]1c3cc(C(=O)O)cc(O)c3C(=O)c3c(O[C@H]4O[C@H](CO)[C@@H](O)[C@H](O)[C@H]4O)cccc31)c1cccc(O[C@H]3O[C@H](CO)[C@@H](O)[C@H](O)[C@H]3O)c1C2=O", "answer-label": "NO"}
{"compound": "NCC(=O)c1ccccc1", "answer-label": "NO"}
{"compound": "CC(C)CCCC(C)[C@H]1CCC2C3C(=O)C=C4C[C@@H](O)CC[C@]4(C)C3CC[C@@]21C (stereo not given in full)", "answer-label": "NO"}
{"compound": "CC(=O)c1ccc(O)c(CC=C(C)C)c1", "answer-label": "NO"}
{"compound": "NC(=O)NC(=O)Cc1ccccc1", "answer-label": "NO"}
{"compound": "CC(=O)c1cc(CC=C(C)C)c(O)c(CC=C(C)C)c1", "answer-label": "NO"}
{"compound": "CC(CCC(=O)O)[C@H]1CCC2C3CC[C@@H]4CC(=O)CC[C@]4(C)C3C=C[C@@]21C (stereo not given in full)", "answer-label": "NO"}
